Property: Plant response rating, Crabgrass, Large; scope: individual compounds
tested on: large crabgrass (Digitaria sanguinalis); experiment: Test A pre-/postemergence plant response; type: in vivo; conditions: Preemergence, 125 g ai/ha; 0 to 100 scale, 0 = no effect, 100 = complete control
# print the numeric value only

Reference set (6 entries):
Cc1cc(Cl)ccc1-n1c(-c2ccccc2)ncc(C(=O)C2=C(O)CCCC2=O)c1=O	50
CCCCc1ncc(C(=O)C2=C(O)CCCC2=O)c(=O)n1-c1ccccc1C	60
CCCCn1c(-c2cccc(C)c2)ncc(C(=O)C2=C(O)C3CCC(C3)C2=O)c1=O (centres unmarked)	10
COc1ccc(-n2c(-c3cccc(Br)c3)ncc(C(=O)C3=C(O)CCCC3=O)c2=O)cc1	0
CCOCCn1c(-c2cc(F)cc(F)c2)ncc(C(=O)C2=C(O)CCCC2=O)c1=O	100
CCCn1c(-c2ccc3c(c2)OCCO3)ncc(C(=O)C2=C(O)C3CCC(C3)C2=O)c1=O (centres unmarked)	20

Input line: Request: Plant response rating, Crabgrass, Large, test system large crabgrass (Digitaria sanguinalis), entry O=C1CCCC(O)=C1C(=O)c1cnc(-c2ccccc2)n(C2CCOCC2)c1=O
Output line: 70

----------
tested on: woolly cupgrass (Eriochloa villosa); assay: Test B pre-/postemergence plant response; assay type: in vivo; conditions: Postemergence, 125 g ai/ha; scale 0 to 100 (0 no effect, 100 complete control)
measurement_kind: Plant response rating, Cupgrass, Woolly

CCCn1c(-c2cccc(OC)c2)ncc(C(=O)C2=C(O)CCCC2=O)c1=O [Compound 100]	70
CCCn1c(-c2cc(Cl)cc(Cl)c2)ncc(C(=O)C2=C(O)CCCC2=O)c1=O [Compound 173]	100
CCCc1ncc(C(=O)C2=C(O)CCCC2=O)c(=O)n1-c1ccccc1 [Compound 217]	45
CCc1cccc(-n2c(-c3ccccc3)ncc(C(=O)C3=C(O)CCCC3=O)c2=O)c1 [Compound 220]	65
O=C1CCCC(O)=C1C(=O)c1cnc(-c2cccs2)n(CC2CCCO2)c1=O (stereo not shown) [Compound 109]	60

Input line: Give its Plant response rating, Cupgrass, Woolly value. Item: CCn1c(-c2cc(F)cc(F)c2)ncc(C(=O)C2=C(O)CCCC2=O)c1=O [Compound 122]
Output line: 75

Input line: Give its Plant response rating, Cupgrass, Woolly value. Item: O=C1CCCC(O)=C1C(=O)c1cnc(-c2ccsc2)n(C2CCOCC2)c1=O [Compound 186]
Output line: 80

----------
test system: johnsongrass (Sorghum halepense); assay: Test B pre-/postemergence plant response; format: in vivo; settings: Postemergence, 125 g ai/ha; scale 0 to 100 (0 no effect, 100 complete control)
measurement_kind: Plant response rating, Johnsongrass
# print the numeric value only

Reference set (2 entries):
CCn1c(-c2cc(F)cc(F)c2)ncc(C(=O)C2=C(O)CCCC2=O)c1=O [Compound 122]	75
COCCCn1c(-c2cccc(F)c2)ncc(C(=O)C2=C(O)CCCC2=O)c1=O [Compound 126]	85

Input line: Give its Plant response rating, Johnsongrass value. Item: CCCn1c(-c2ccccc2)ncc(C(=O)C2=C(O)C3CCC(C3)C2=O)c1=O (centres unmarked) [Compound 226]
Output line: 100

Input line: Give its Plant response rating, Johnsongrass value. Item: CCc1cccc(-n2c(-c3ccccc3)ncc(C(=O)C3=C(O)CCCC3=O)c2=O)c1 [Compound 220]
Output line: 80

Every entry's value here was drawn from patent US8952024B2.
